The reported numbers originate from the emibetuzumab library of Makowski et al. (2022).

B1: VH:VL chains; a variant is named by its letters at X, in order (parent)
chain 1: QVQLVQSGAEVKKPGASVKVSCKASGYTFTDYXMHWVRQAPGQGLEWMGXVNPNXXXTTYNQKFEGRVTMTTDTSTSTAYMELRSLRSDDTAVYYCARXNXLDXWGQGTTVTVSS
chain 2: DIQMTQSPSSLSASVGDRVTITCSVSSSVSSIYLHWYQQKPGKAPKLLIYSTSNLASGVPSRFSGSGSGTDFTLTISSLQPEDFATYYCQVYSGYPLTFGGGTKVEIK

# Variants of: B1
# TEST DESCRIPTION: yeast display scFab, FACS + sequencing
METRIC: non-specific binding call

Examples from the recorded data:
VARIANT ANNOTATION	OBS VALUE
DEGGTDLD	no binding
DTGTGDGV	no binding
FRAGSSGV	binds
YAGRGDLV	no binding
YKGRGSWF	binds

Query: // lookup non-specific binding call for VKAGGDAV
Reply: no binding

Query: Would you mind telling me what non-specific binding call value was observed for VGGTSALD ?
Reply: no binding

Query: Field request: non-specific binding call | item: DEGGTDAV
Reply: no binding

Query: # get_value(readout='non-specific binding call', item= YKGRGYLV )
Reply: no binding

Query: non-specific binding call lookup needed for FTGEADAS , thanks.
Reply: no binding
